Sourced from paper PMC5458078

Tested on: MCF7 cells
ASSAY OVERVIEW: Quantitative nanoLC-MS/MS (TMT) of ADMA-containing peptides, CARM1 KO vs parental
Assay type: cell-based, human
Parameters: scale not given here
ASSAY CONTEXT: ADMA-containing peptide, MCF7, CARM1 knockout (KO1-3) vs wild type (WT1-3), TMT 6-plex experiment #1
So basically, if Fold change KO/WT comes in under -0.08 it's Satisfied, and if it's -0.08 or more it's Not satisfied.

1. CPADNPGLVQAQPrVPLTPTR    Satisfied
2. GrGTLTrGAFVGATAAPGYIAPGYGTPYGYSTAAPAYGLPK    Not satisfied
3. GAAGAVTQSLSrTPTATTSGIrATLTPTVLAPrLPQPPQNPTNIQNFQLPPGMVLVR    Satisfied
4. APPSFPPPAASrGGLGGTR    Not satisfied
5. SPFLGSArPrLrFSPYQIPVTIPPSTSLLTTGLASEGSK    Satisfied
6. TPTATTSGIrATLTPTVLAPR    Satisfied

---

Tested on: MCF7 CARM1 KO cells
ASSAY OVERVIEW: Quantitative MS of ADMA-containing peptides in MCF7 CARM1 KO cells expressing CARM1 28-608 or CARM1 140-608, and in CARM1 KO
Assay type: cell-based, human
ASSAY CONTEXT: mean, CARM1 KO versus WT (log2 scale)
Classify: YES when KO/WT is strictly less than -0.5; NO when KO/WT is not.

1. GPPGGNrGGFQNrGGGSGGGGNYrGGFNR    NO
2. GPGGPrGGLGGGMR    NO
3. TVPMGGVrLVTPVTVSAVKPAVTTLVVK    YES
4. KPLGTAPHCPrLPLR    YES
5. APVFPGrGSYSNrGNYNR    NO
6. LRGPGGPrGGLGGGMR    NO
7. YLQTVQYGVHGNFPrLSYPTFFPR    YES
8. KLFIGGLSFETTDDSLr    NO
9. AYGQQYWGQPGNrGGYRNFYDR    NO
10. GGGSGNFMGrGGNFGGGGGNFGrGGNFGGrGGYGGGGGGSR    NO
11. APVFPGrGSYSNR    NO
12. APVFPGrGSYSNr    NO
13. LQGLQGSGGrGGGLR    NO
14. QTGSPGMIYSTrYGSPK    YES
15. SGFAATSQPGPrLPFIQHSQNPrFYHK    YES
16. LFIGGLSFETTDDSLr    NO
17. FrHNIAYFPQIVSVAAR    YES
18. ACLTSGTPGPrAQLTAVTPDTR    YES
19. EVYQQQQYGSGGrGNR    NO
20. GGrGrGGSGGGGGGGGGGYNR    NO
21. MGAGMGFGLErMAAPIDR    YES
22. SGSGNFGGGrGGGFGGNDNFGrGGNFSGrGGFGGSR    NO
23. KPLGTAPHCPrLPLRK    YES
24. ELAPrAHVLSK    YES
25. HSAYSYCGrGFYPQYGALETrGGFNPR    NO
26. RAPVPVrGGPK    NO
27. GVVDSDDLPLNVSr    YES
28. SGFAATSQPGPrLPFIQHSQNPR    YES
29. LLGQRPGPYDRPIGGrGGYYGAGR    NO
30. RGPPPPPPGrGGrGGSR    NO
31. LSAETWDLLrLPLER    YES
32. AYGQQYWGQPGNrGGYrNFYDR    NO
33. GSRLPLALPPASQGCSSGGGGGGGGGSSAGGSGNSrPPR    YES

---

Each entry below lists one item and its recorded CARM1 140-608/WT value.
System: MCF7 CARM1 KO cells
ASSAY OVERVIEW: Quantitative MS of ADMA-containing peptides in MCF7 CARM1 KO cells expressing CARM1 28-608 or CARM1 140-608, and in CARM1 KO
Format: cell-based, human
ASSAY CONTEXT: CARM1 140-608 vs WT, mean of 3 replicates (log2 scale)
MEASUREMENT LABEL: CARM1 140-608/WT

1. GQPrTWLQSPV    -2.79
2. MGTPVPrPPQDMGQIGVrTPLGPrVAAPVGPVGPTPTVLPMGAPVPrPR    -1.761
3. SGIILrSPrPDFrPrEPFLSrDPFHSLK    -0.96
4. SVVESSAPGANNLQVNALVArLPLLLPrAPR    -1.353
5. SLIPPIPVSPPILAPrLSSGALK    -0.7213
6. QPPPLQQQArFIQPrPTLNQPPPPLIrPANSMPPR    1.096
7. AGGAASGGGGNSWDLPGSHVrLPGR    -0.7799
8. EVVrYLGGSGGAGGR    -0.0149
9. FLQPrLAPNQPPPPLIrPALAAPR    0.3049
10. GPLPPPRPTPrPPVPPrGPLrGPLPQ    0.8489
11. VGVPPQNPrPSLNSAPSPFNPQGQSQITDPR    -2.085
12. FIQPrPTLNQPPPPLIRPANSMPPR    0.5669
13. MGTPVPRPPQDMGQIGVrTPLGPrVAAPVGPVGPTPTVLPMGAPVPRPR    -1.595

---

System: MCF7 cells
ASSAY OVERVIEW: Quantitative nanoLC-MS/MS (TMT) of ADMA-containing peptides, CARM1 KO vs parental
Type: cell-based, human
Design: scale not given here
ASSAY CONTEXT: CARM1 KO vs wild type MCF7 cells, 3 biological replicates each
Categorized via Fold change KO/WT: I = under -3, II = from -3 up to -0.9, III = -0.9 and over

1) GrGALLQDICK    III
2) GSGTGIYSNAAPPPVTYQGNLYrPLLR    II
3) GAEAANVTGPDGVPVEGSrYAADR    II
4) KVPQPCSSATLNrLTVPrYSIPTGDPPPYPEIASQLAQGR    I
5) YPLPPPSGrYNWN    II
6) SLCASTLTVSSGSSrGSLASSrGSLASSR    III
7) SHLSTAGGLAVPSLPTAGPYYSPYALYGQrLASASALGYQ    II
8) FFHMPrFQHQAPrQLFYK    II
9) HQQLQQMrMQQPPAPVPTTTTTTQQHPrQAAPQMLQQQPPrLISVQTMQR    II
10) GPrFEGNrPDGPrPrYEGHPAEGTK    I
11) CDPVPAANGAIrFHCDPTFWAK    II
12) LTrGQLQHLGTR    III
13) QAAPQMLQQQPPrLISVQTMQR    II
14) GGrFSAQGMGTFNPADYAEPANTDDNYGNSSGNTWNNTGHFEPDDGTSAWR    III
15) SGSNWGrGSNMNSGPPR    III
16) TEQAGrNALLSDISK    II
17) NPHTLGLSrYHPYGK    III
18) GPrFEGNRPDGPrPrYEGHPAEGTK    II
19) DVEAATGQDLGSSrYSGK    III
20) LAQNAArIPGIPrHSGPQYSMMQPHLQR    II
21) GTPGPPPAHGAALQPHPrVNFCPLPSEQCYQAPGGPEDR    III
22) ErDMQYVQR    III
23) KYPLPPPSGrYNWN    II
24) LLPAPrAYLVPENFR    III
25) SSYLESPrGPrFDGPR    I
26) TPLLGDGPrAPFNQEGQSTGPPPLIPGLGQQGAQGR    I
27) GSGTGIYSNAAPPPVTYQGNLYrPLLrGQAQIPK    I
28) YSAFQLAPFQDHGLPAVSVDSPVrYK    II
29) SAPFFIPTIPGLVPrYAAPEQNNDPQQSK    I
30) TYSEVYPGQQYLQGGQYAPSTAQFAPSPGQPPAPSPSYPGHrLPLQQGMTQSLSVPGPTGLHYKPTR    II

---

Test system: MCF7 cells
ASSAY OVERVIEW: Quantitative nanoLC-MS/MS (TMT) of ADMA-containing peptides, CARM1 KO vs parental
Type: cell-based, human
Set-up: scale not given here
ASSAY CONTEXT: ADMA-containing peptide, MCF7, CARM1 knockout (KO1-3) vs wild type (WT1-3), TMT 6-plex experiment #1
MEASUREMENT LABEL: Fold change KO/WT

1. LPPDRYCLTAPNYrLK    -0.4021
2. VrATSVLPrYGPPCLFK    -2.652
3. LGHDPYrLGHDAYrLGQDPYrLGHDPYR    -1.602
4. QrGVSHAMGGrGGINR    0.102
5. LQHMQQQQPPPrLINFQNHSPKPNGPVLPPHPQQLrYPPNQNIPR    -0.9847
6. LISVQTMQrGNMNCGAFQAHQMR    -0.03531
7. GAPHFrFIIAGR    -0.1995
8. TPGQINLAQLrLQHMQQQVYAQK    -4.121
